Test system: 328373-195-R-J1-PDC complex spheroids, viability % test/control;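 also: spheroids exposed to the agents for 7 days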
assay notes: Anticancer human tumor 328373-195-R-J1-PDC patient-derived head and neck squamous carcinoma cell line growth inhibition [CLK]; active = viability on the fitted dose curve at most 10% of control; inactive = the rest
condition context: second compound 0.316 µM; first compound 1 µM
Outcomes you can answer with include only these: active, inactive

Incoming: Look up the recorded call for CCCS(=O)(=O)Nc1ccc(F)c(C(=O)c2c[nH]c3ncc(-c4ccc(Cl)cc4)cc23)c1F + CN1CCN(c2cc(C(=O)Nc3cc4cc(-c5cnn(C)c5)ccc4cn3)ccn2)CC1 in this test.
Outgoing: inactive

Incoming: Repeat for the following compound: Nc1ccn(C2OC(CO)C(O)C2(F)F)c(=O)n1 (stereo not given) + CN1CCN(c2cc(C(=O)Nc3cc4cc(-c5cnn(C)c5)ccc4cn3)ccn2)CC1
Outgoing: active

Incoming: Repeat for the following compound: C#Cc1c(F)ccc2cc(O)cc(-c3ncc4c(N5CC6CCC(C5)N6)nc(OCC56CCCN5CC(F)C6)nc4c3F)c12 (stereo not given) + CN1CCN(c2cc(C(=O)Nc3cc4cc(-c5cnn(C)c5)ccc4cn3)ccn2)CC1
Outgoing: inactive

Incoming: Repeat for the following compound: C=C(F)C(=O)N1CCN(c2nc(OCC3CCCN3C)nc3c2CCN(c2cccc4cccc(Cl)c24)C3)CC1CC#N (stereo not given) + CNC(=O)c1ccc(Nc2nc(OC3CCCC3)c3c(-c4ccc5nc(C)oc5c4)c[nH]c3n2)c(OC)c1
Outgoing: active

Incoming: Repeat for the following compound: CC(=O)O[C@H]1C(=O)[C@@]2(C)[C@H]([C@H](OC(=O)c3ccccc3)[C@]3(O)C[C@H](OC(=O)[C@H](O)[C@@H](NC(=O)c4ccccc4)c4ccccc4)C(C)=C1C3(C)C)[C@]1(OC(C)=O)CO[C@@H]1C[C@@H]2O + CNC(=O)c1ccc(Nc2nc(OC3CCCC3)c3c(-c4ccc5nc(C)oc5c4)c[nH]c3n2)c(OC)c1
Outgoing: inactive
